# tested target: feline FcRn complex (FcRn-α subunit and β-microglobulin), biotin labeled (feline)
# assay notes: SPR, pH 6

{"binder": "feline IgG1a A431K (antibody, part only; not given: variable domains and light chain, not shown: another chain or arm of the molecule) constant: ASTTAPSVFPLAPSCGTTSGATVALACLVLGYFPEPVTVSWNSGALTSGVHTFPAVLQASGLYSLSSMVTVPSSRWLSDTFTCNVAHPPSNTKVDKTVRKTDHPPGPKPCDCPKCPPPEMLGGPSIFIFPPKPKDTLSISRTPEVTCLVVDLGPDDSDVQITWFVDNTQVYTAKTSPREEQFNSTYRVVSVLPILHQDWLKGKEFKCKVNSKSLPSPIERTISKAKGQPHEPQVYVLPPAQEELSRNKVSVTCLIKSFHPPDIAVEWEITGQPEPENNYRTTPPQLDSDGTYFVYSKLSVDRSHWQRGNTYTCSVSHEKLHSHHTQKSLTQSPGK", "Kd, nM": 10.1}
{"binder": "feline IgG1a S252Y/S434R/Q311W (antibody, part only; not given: Variable domains, not shown: another chain or arm of the molecule) constant: ASTTAPSVFPLAPSCGTTSGATVALACLVLGYFPEPVTVSWNSGALTSGVHTFPAVLQASGLYSLSSMVTVPSSRWLSDTFTCNVAHPPSNTKVDKTVRKTDHPPGPKPCDCPKCPPPEMLGGPSIFIFPPKPKDTLYISRTPEVTCLVVDLGPDDSDVQITWFVDNTQVYTAKTSPREEQFNSTYRVVSVLPILHWDWLKGKEFKCKVNSKSLPSPIERTISKAKGQPHEPQVYVLPPAQEELSRNKVSVTCLIKSFHPPDIAVEWEITGQPEPENNYRTTPPQLDSDGTYFVYSKLSVDRSHWQRGNTYTCSVSHEALHRHHTQKSLTQSPGK", "Kd, nM": 0.143}

Provenance of the data: patent US20240400708A1
